# tested on: glucosylceramide synthase (GCS) (Homo sapiens, UniProt Q16739)
# Construct: The obtained supernatant was used
# Sequence (Q16739 whole entry): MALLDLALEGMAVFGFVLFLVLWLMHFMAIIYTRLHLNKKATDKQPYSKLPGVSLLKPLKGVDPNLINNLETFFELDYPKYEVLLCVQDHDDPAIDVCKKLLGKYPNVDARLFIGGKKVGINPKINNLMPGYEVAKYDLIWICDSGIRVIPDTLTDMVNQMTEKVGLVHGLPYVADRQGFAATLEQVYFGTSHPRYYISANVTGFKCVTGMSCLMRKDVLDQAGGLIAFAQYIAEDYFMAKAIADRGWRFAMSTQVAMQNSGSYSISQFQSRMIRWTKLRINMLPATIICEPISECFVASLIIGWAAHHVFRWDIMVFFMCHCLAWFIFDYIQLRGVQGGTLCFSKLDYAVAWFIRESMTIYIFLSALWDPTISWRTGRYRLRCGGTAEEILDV
# assay name: GCS enzyme inhibition assay (A549 cell lysate, NBD C6-ceramide, HPLC fluorescence)
# assay setup: inhibitory activity against GCS, 37° C., 90 minutes
recorded metric: IC50 (nM)
// return numeric value only (unit: nM, not printed)

IC50 measured on O=C(NC1CCSc2cc(-c3cc(Cl)ccc3Cl)ccc21)O[C@@H]1CN2CCC1CC2 (stereo partly shown) [Example 323] = 0.63

IC50 measured on COc1ccc(Cl)c(-c2cc3c(cc2OC)C(NC(=O)O[C@@H]2CN4CCC2CC4)C(C)(C)CO3)c1 (stereo partly shown) [Example 359] = 0.62

IC50 measured on O=C(NC1CCOc2cc(C3=CCCO3)ccc21)O[C@@H]1CN2CCC1CC2 (stereo partly shown) [Example 38] = 3.02

IC50 measured on CC(C)Oc1ccc(-c2ccc3c(c2)OCC(C)(C)C3NC(=O)O[C@@H]2CN3CCC2CC3)cc1Cl (stereo partly shown) [Example 167] = 0.71

IC50 measured on O=C(NC1CCOc2cc(-c3c[nH]c4ccccc34)ccc21)O[C@@H]1CN2CCC1CC2 (stereo partly shown) [Example 46] = 4.08

IC50 measured on O=C(NC1CCOc2cc(-c3cccc4cnccc34)ccc21)O[C@@H]1CN2CCC1CC2 (stereo partly shown) [Example 54] = 2.14

IC50 measured on CN(C)c1cc(-c2ccc3c(c2)OCCC3NC(=O)O[C@@H]2CN3CCC2CC3)ccc1F (stereo partly shown) [Example 69] = 1.91

IC50 measured on CC1(C)COc2cc(-c3cc(F)c(F)cc3F)ccc2C1NC(=O)O[C@@H]1CN2CCC1CC2 (stereo partly shown) [Example 200] = 0.49

IC50 measured on CC1(C)COc2cc(-c3cc(C(F)(F)F)ccc3Cl)ccc2C1NC(=O)O[C@@H]1CN2CCC1CC2 (stereo partly shown) [Example 139] = 0.62

IC50 measured on COc1cc(-c2ccc3c(c2)OCC(C)(C)C3NC(=O)O[C@@H]2CN3CCC2CC3)ccn1 (stereo partly shown) [Example 203] = 0.72

IC50 measured on CC1(C)COc2cc(-c3cccc(OCc4ccccc4)c3)ccc2C1NC(=O)O[C@@H]1CN2CCC1CC2 (stereo partly shown) [Example 277] = 0.65

IC50 measured on Cc1ccc(-c2ccc3c(c2)OCC(C)(C)C3NC(=O)O[C@@H]2CN3CCC2CC3)cc1C#N (stereo partly shown) [Example 199] = 0.51

IC50 measured on CCc1cccc(-c2cc3c(cc2F)C(NC(=O)O[C@@H]2CN4CCC2CC4)C(C)(C)CO3)c1 (stereo partly shown) [Example 333] = 0.45

IC50 measured on O=C(NC1CCOc2cc(-c3cccc4cccnc34)ccc21)O[C@@H]1CN2CCC1CC2 (stereo partly shown) [Example 56] = 1.38

IC50 measured on CN(C)c1cc(-c2ccc3c(c2)OCC(C)(C)C3NC(=O)O[C@@H]2CN3CCC2CC3)ccc1F (stereo partly shown) [Example 171] = 0.79

IC50 measured on CC1(C)COc2ccc(-c3cccc(F)c3)cc2C1NC(=O)O[C@@H]1CN2CCC1CC2 (stereo partly shown) [Example 101] = 9.2

IC50 measured on COc1cccc(-c2ccc3c(c2)OCC(C)(C)C3NC(=O)O[C@@H]2CN3CCC2CC3)c1Cl (stereo partly shown) [Example 176] = 0.59

IC50 measured on CSc1cccc(-c2ccc3c(c2)SCCC3NC(=O)O[C@@H]2CN3CCC2CC3)c1 (stereo partly shown) [Example 325] = 0.58

IC50 measured on CC1(NC(=O)O[C@@H]2CN3CCC2CC3)CCOc2cc(-c3coc4ccccc34)ccc21 (stereo partly shown) [Example 304] = 0.38

IC50 measured on O=C(NC1CCOc2cc(-c3cncc4ccccc34)ccc21)O[C@@H]1CN2CCC1CC2 (stereo partly shown) [Example 53] = 1.77

IC50 measured on CC1(C)COc2cc(-c3ccccc3C(F)(F)F)ccc2C1NC(=O)O[C@@H]1CN2CCC1CC2 (stereo partly shown) [Example 185] = 0.67

IC50 measured on COc1ccc(-c2ccc3c(c2)OCC(C)(C)C3NC(=O)O[C@@H]2CN3CCC2CC3)cc1C(F)(F)F (stereo partly shown) [Example 210] = 1.57

IC50 measured on CC1(C)COc2cc(-c3ccccn3)ccc2C1NC(=O)O[C@@H]1CN2CCC1CC2 (stereo partly shown) [Example 266] = 4.07

IC50 measured on CC1(C)COc2cc(-c3ccc(OCc4ccccc4)cc3)ccc2C1NC(=O)O[C@@H]1CN2CCC1CC2 (stereo partly shown) [Example 276] = 0.54

IC50 measured on CC1(C)COc2cc(-c3cccc4ccccc34)ccc2C1NC(=O)O[C@@H]1CN2CCC1CC2 (stereo partly shown) [Example 131] = 1.02

IC50 measured on COc1cccc(-c2ccc3c(c2)OCC(C)(C)C3NC(=O)O[C@@H]2CN3CCC2CC3)c1OC (stereo partly shown) [Example 127] = 2.11

IC50 measured on O=C(NC1CCOc2ccc(-c3ccc(C(F)(F)F)cc3)cc21)O[C@@H]1CN2CCC1CC2 (stereo partly shown) [Example 91] = 5.38

IC50 measured on CC1(C)CSc2ccc(-c3ccc(C(F)(F)F)cc3)cc2C1NC(=O)O[C@@H]1CN2CCC1CC2 (stereo partly shown) [Example 329] = 14.9

IC50 measured on CC1(C)COc2cc(-c3cccc(F)c3F)ccc2C1NC(=O)O[C@@H]1CN2CCC1CC2 (stereo partly shown) [Example 239] = 0.47

IC50 measured on O=C(NC1CCOc2ccc(-c3ccc(F)cc3)cc21)O[C@@H]1CN2CCC1CC2 (stereo partly shown) [Example 85] = 9.67

IC50 measured on COCCOc1ccccc1-c1ccc2c(c1)OCC(C)(C)C2NC(=O)O[C@@H]1CN2CCC1CC2 (stereo partly shown) [Example 109] = 2.14

* * *

# tested on: glucosylceramide synthase (GCS) (Homo sapiens, UniProt Q16739)
# Construct: The obtained supernatant was used
# assay name: GCS enzyme inhibition assay (A549 cell lysate, NBD C6-ceramide, HPLC fluorescence)
# assay setup: inhibitory activity against GCS, 37° C., 90 minutes
Label Criterion met when IC50 is strictly below 0.4 nM; at or above that, label Criterion not met.

Here's an entry: CCCOc1c(C)cc(-c2ccc3c(c2)OCC(C)(C)C3NC(=O)O[C@@H]2CN3CCC2CC3)cc1C (some centres unmarked) . Is its IC50 below 0.4 nM?
Criterion not met

Here's an entry: COCCOc1ccccc1-c1ccc2c(c1)OCCC2NC(=O)O[C@@H]1CN2CCC1CC2 (some centres unmarked) . Is its IC50 below 0.4 nM?
Criterion not met

Here's an entry: CC1(C)COc2cc(/C=C/c3ccc(C(F)(F)F)cc3)ccc2C1NC(=O)O[C@@H]1CN2CCC1CC2 (some centres unmarked) . Is its IC50 below 0.4 nM?
Criterion not met

Here's an entry: CCOc1ccccc1-c1ccc2c(c1)OCC(C)(C)C2NC(=O)O[C@@H]1CN2CCC1CC2 (some centres unmarked) . Is its IC50 below 0.4 nM?
Criterion met

Here's an entry: COc1ccc(-c2cc3c(cc2F)C(NC(=O)O[C@@H]2CN4CCC2CC4)C(C)(C)CO3)cc1 (some centres unmarked) . Is its IC50 below 0.4 nM?
Criterion met

Here's an entry: C=Cc1ccccc1-c1ccc2c(c1)OCC(C)(C)C2NC(=O)O[C@@H]1CN2CCC1CC2 (some centres unmarked) . Is its IC50 below 0.4 nM?
Criterion not met

Here's an entry: CC(C)c1cccc(-c2ccc3c(c2)OCCC3(C)NC(=O)O[C@@H]2CN3CCC2CC3)c1 (some centres unmarked) . Is its IC50 below 0.4 nM?
Criterion met

* * *

# Tested on: GM1 production in Jurkat cells
# assay name: cells
# Type: cell-based
# assay setup: Homo sapiens, Jurkat, 72 h
Kindly supply the reported IC50 values for the records listed here.
Quote the value and follow it with the unit of measurement.

IC50 measured on CN1CCOc2cc(-c3ccc4c(c3)OCCC4NC(=O)O[C@@H]3CN4CCC3CC4)ccc21 (stereo partly shown) = 27 nM

IC50 measured on CC1(C)COc2cc(-c3ccc4ccccc4c3)ccc2C1NC(=O)O[C@@H]1CN2CCC1CC2 (stereo partly shown) = 1.4 nM

IC50 measured on COc1ccc(Cl)c(-c2ccc3c(c2)OCC(C)(C)C3NC(=O)O[C@@H]2CN3CCC2CC3)c1 (stereo partly shown) = 0.06 nM

IC50 measured on CCOc1ccc(-c2ccc3c(c2)OCC(C)(C)C3NC(=O)O[C@@H]2CN3CCC2CC3)cn1 (stereo partly shown) = 6.4 nM

IC50 measured on O=C(NC1CCOc2cc(-c3cc(Cl)ccc3Cl)ccc21)O[C@@H]1CN2CCC1CC2 (stereo partly shown) = 0.54 nM

IC50 measured on O=C(NC1CCOc2ccc(-c3ccc(F)cc3)cc21)O[C@@H]1CN2CCC1CC2 (stereo partly shown) = 222 nM

IC50 measured on Cc1ccc(Cl)c(-c2ccc3c(c2)OCC(C)(C)C3NC(=O)O[C@@H]2CN3CCC2CC3)c1 (stereo partly shown) = 0.6 nM

IC50 measured on COc1ccc(-c2ccc3c(c2)OCC(C)(C)C3NC(=O)O[C@@H]2CN3CCC2CC3)cc1C (stereo partly shown) = 3.72 nM

IC50 measured on O=C(NC1CCOc2cc(-c3ccc(N4CCOCC4)c(F)c3)ccc21)O[C@@H]1CN2CCC1CC2 (stereo partly shown) = 28.7 nM

IC50 measured on COc1cccc(OC)c1-c1ccc2c(c1)OCC(C)(C)C2NC(=O)O[C@@H]1CN2CCC1CC2 (stereo partly shown) = 2.05 nM

IC50 measured on O=C(NC1CCOc2cc(-c3cc4ccccc4s3)ccc21)O[C@@H]1CN2CCC1CC2 (stereo partly shown) = 34.1 nM

IC50 measured on CC1(C)COc2cc(-c3ccc(C4CC4)nc3)ccc2C1NC(=O)O[C@@H]1CN2CCC1CC2 (stereo partly shown) = 5.4 nM

IC50 measured on Cc1cc(-c2ccc3c(c2)OCC(C)(C)C3NC(=O)O[C@@H]2CN3CCC2CC3)ccc1N1CCOCC1 (stereo partly shown) = 1.81 nM

IC50 measured on CC1(C)COc2cc(-c3ccc(F)cc3)ccc2C1NC(=O)O[C@@H]1CN2CCC1CC2 (stereo partly shown) = 1.81 nM

IC50 measured on CC1(NC(=O)O[C@@H]2CN3CCC2CC3)CCOc2cc(-c3coc4ccccc34)ccc21 (stereo partly shown) = 2.1 nM

IC50 measured on Cc1ccc(-c2ccc3c(c2)OCC(C)(C)C3NC(=O)O[C@@H]2CN3CCC2CC3)c(F)c1 (stereo partly shown) = 1.7 nM

IC50 measured on COc1cc(-c2ccc3c(c2)OCC(C)(C)C3NC(=O)O[C@@H]2CN3CCC2CC3)ccn1 (stereo partly shown) = 8.03 nM

IC50 measured on COc1cc2c(cc1-c1cc(C)c(OC)c(C)c1)OCC(C)(C)C2NC(=O)O[C@@H]1CN2CCC1CC2 (stereo partly shown) = 14.5 nM

IC50 measured on CC(C)(C)c1cccc(-c2ccc3c(c2)COCC3NC(=O)O[C@@H]2CN3CCC2CC3)c1 (stereo partly shown) = 28.8 nM

IC50 measured on O=C(NC1CCOc2cc(-c3ccccc3Cl)ccc21)O[C@@H]1CN2CCC1CC2 (stereo partly shown) = 7.23 nM

IC50 measured on CC(C)COc1ccc(-c2cc3c(cc2F)C(NC(=O)O[C@@H]2CN4CCC2CC4)C(C)(C)CO3)cc1 (stereo partly shown) = 0.02 nM

IC50 measured on CC1(C)COc2cc(-c3cccc(OC(F)(F)F)c3)ccc2C1NC(=O)O[C@@H]1CN2CCC1CC2 (stereo partly shown) = 1.41 nM

IC50 measured on O=C(NC1CCSc2cc(-c3cccc(F)c3)ccc21)O[C@@H]1CN2CCC1CC2 (stereo partly shown) = 13.8 nM

IC50 measured on CC1(C)COc2cc(-c3cc(F)ccc3Cl)ccc2C1NC(=O)O[C@@H]1CN2CCC1CC2 (stereo partly shown) = 0.3 nM

IC50 measured on O=C(NC1CCOc2cc(-c3cccc4cn[nH]c34)ccc21)O[C@@H]1CN2CCC1CC2 (stereo partly shown) = 12.3 nM

IC50 measured on COc1cc(F)ccc1-c1ccc2c(c1)OCC(C)(C)C2NC(=O)O[C@@H]1CN2CCC1CC2 (stereo partly shown) = 6.41 nM

IC50 measured on Cc1ccc(-c2ccc3c(c2)OCC(C)(C)C3NC(=O)O[C@@H]2CN3CCC2CC3)cc1 (stereo partly shown) = 1.9 nM

IC50 measured on COc1cc2c(cc1-c1ccc(OC(C)C)nc1)OCC(C)(C)C2NC(=O)O[C@@H]1CN2CCC1CC2 (stereo partly shown) = 3.2 nM

IC50 measured on COc1ccc(-c2ccc3c(c2)OCC(C)(C)C3NC(=O)O[C@@H]2CN3CCC2CC3)cn1 (stereo partly shown) = 24.1 nM

IC50 measured on COc1cc2c(cc1-c1ccc(C(C)(C)C)cc1)OCC(C)(C)C2NC(=O)O[C@@H]1CN2CCC1CC2 (stereo partly shown) = 2 nM

IC50 measured on COCOc1cccc(-c2ccc3c(c2)OCC(C)(C)C3NC(=O)O[C@@H]2CN3CCC2CC3)c1 (stereo partly shown) = 0.1 nM

Ref: patent US12673944B2
